Hi there, I'd appreciate the recorded bioavailability for every entry that follows.
experiment-description: Oral bioavailability in rat
Type: ADME, organism-based
experimental-parameters: in vivo
Answer shape: numeric part, then the unit.

Incoming: What value of bioavailability has been recorded for this entry: `CCc1nc2c(C)cc(CO)nc2n1Cc1ccc2oc(-c3ccccc3NS(=O)(=O)C(F)(F)F)c(Br)c2c1`
Outgoing: 115%

Incoming: Looking for the measured bioavailability of `CCc1nc2c(C)cc(C)nc2n1Cc1ccc2oc(-c3ccccc3NS(=O)(=O)C(F)(F)F)c(Br)c2c1` , can you help?
Outgoing: 70%

---

experiment-description: Compound was tested for plasma half-life period in rat
Type: ADME, organism-based
What half-life was measured for each of the following?
State just the number; it will be interpreted in h.

Incoming: Which half-life value is on record for `CCc1nc2c(C)cc(CO)nc2n1Cc1ccc2oc(-c3ccccc3NS(=O)(=O)C(F)(F)F)c(Br)c2c1` ?
Outgoing: 5.7

Incoming: # get_value(readout='half-life', item= `CCc1nc2c(C)cc(C)nc2n1Cc1ccc2oc(-c3ccccc3NS(=O)(=O)C(F)(F)F)c(Br)c2c1` )
Outgoing: 2.8
